System Under Test: T1, mouse ROR1 expressed on CHO cells (CHO-K1/Mouse ROR1 stable cells) (mouse, UniProt Q9Z139 30-937)
T1 construct: whole, on cells
T1 sequence (Q9Z139 30-937): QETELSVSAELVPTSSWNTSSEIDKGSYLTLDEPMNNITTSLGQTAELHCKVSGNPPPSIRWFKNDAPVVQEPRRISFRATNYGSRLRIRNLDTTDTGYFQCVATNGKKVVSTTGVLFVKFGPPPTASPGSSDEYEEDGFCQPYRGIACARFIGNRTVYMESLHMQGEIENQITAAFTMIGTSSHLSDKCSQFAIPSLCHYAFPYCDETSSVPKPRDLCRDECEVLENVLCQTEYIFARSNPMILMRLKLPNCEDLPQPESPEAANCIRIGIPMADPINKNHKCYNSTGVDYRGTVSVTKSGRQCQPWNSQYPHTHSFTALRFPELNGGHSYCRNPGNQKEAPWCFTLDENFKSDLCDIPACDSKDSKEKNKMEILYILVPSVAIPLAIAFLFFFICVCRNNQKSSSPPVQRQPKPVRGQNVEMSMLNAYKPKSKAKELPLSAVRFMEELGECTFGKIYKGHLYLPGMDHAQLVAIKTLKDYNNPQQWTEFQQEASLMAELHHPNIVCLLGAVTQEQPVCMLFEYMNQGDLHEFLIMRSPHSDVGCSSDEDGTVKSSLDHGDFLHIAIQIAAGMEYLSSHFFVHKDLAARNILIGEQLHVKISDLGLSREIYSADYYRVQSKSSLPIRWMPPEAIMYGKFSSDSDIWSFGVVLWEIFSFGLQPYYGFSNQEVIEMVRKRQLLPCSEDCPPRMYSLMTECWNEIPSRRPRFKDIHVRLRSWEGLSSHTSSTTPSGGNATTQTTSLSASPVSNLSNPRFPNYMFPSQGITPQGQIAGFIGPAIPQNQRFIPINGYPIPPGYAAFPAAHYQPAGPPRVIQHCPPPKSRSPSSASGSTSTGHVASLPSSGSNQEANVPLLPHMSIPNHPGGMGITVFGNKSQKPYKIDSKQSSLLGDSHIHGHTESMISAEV
Experimental Protocol: flow cytometry, 10 ug/ml antibody on Mouse ROR1-CHO-K1 cells (curve 2), fluorescent secondary antibody
Assay Readout: Geometric Mean : Alexa Fluor 647-H
Form rule: numeric answer, no unit written next to it.

Examples with answers:
>  <Binder>
single domain antibody AHP15485 (Fc fusion, Alpaca VHH expressed from pcDNA3.4-Fc (HuIgG1) in HEK293-6E; also called AHP15485-VHH; not shown: human IgG1 Fc of the pcDNA3.4-Fc (HuIgG1) expression vector) EVQLVESGGGLAQAGGSLSLSCTASGRSFSNFQMGWFRQAPGKEREFVAASGWSGGPTYYADSVKGRFTISTDDSKKTMYLQMNSLKPEDTAAYYCYEDRVLSGRPVRYWGRGTQVTVSS

>  <Assay Readout>
Geometric Mean : Alexa Fluor 647-H

>  <Endpoint Result>
31400

$$$$
>  <Binder>
single domain antibody AHP15662 (Fc fusion, VHH expressed from pcDNA3.4-Fc (HuIgG1); also called AHP15662-VHH; not shown: human IgG1 Fc of the pcDNA3.4-Fc (HuIgG1) expression vector) EVQLVESGGGLVQPGGTLRLSCAASGSISRFYAVGWYRQAPGKQRELVARISSGGSTYYADSVKGRFTISINNSKNTVYLQMNNLKPEDTAVYYCNARNLWGQGTQVTVSS

>  <Assay Readout>
Geometric Mean : Alexa Fluor 647-H

>  <Endpoint Result>
75600

$$$$

So for single domain antibody AHP15773 (Fc fusion, VHH expressed from pcDNA3.4-Fc (HuIgG1); also called AHP15773-VHH; not shown: human IgG1 Fc of the pcDNA3.4-Fc (HuIgG1) expression vector) EVQLVESGGGLVQPGGSLRLSCLASGSDFSDSAMGWYRQAPGKQREFVAAIGAGGITTYADSVKGRFTISRDSAKNIVYLQMSSLSPEDTAVYFCNFAPGWYPPGYQYWGQGTQVTVSS , the logged Geometric Mean : Alexa Fluor 647-H turned out to be 54900

Quick note, Geometric Mean : Alexa Fluor 647-H for humanized single domain antibody AHP15485-VHH4 (Fc fusion, Humanized VHH expressed from pcDNA3.4-Fc (Human IgG1); not shown: human IgG1 Fc of the pcDNA3.4-Fc (Human IgG1) expression vector) EVQLVESGGGLVQPGGSLRLSCAASGRSFSNFQMGWFRQAPGKEREFVAASGWSGGPTYYADSVKGRFTISTDNSKNTLYLQMNSLRAEDTAVYYCYEDRVLSGRPVRYWGQGTLVTVSS landed at 8630

Note to self: Geometric Mean : Alexa Fluor 647-H recorded for humanized single domain antibody AHP15662-VHH4 (Fc fusion, Humanized VHH expressed from pcDNA3.4-Fc (Human IgG1); not shown: human IgG1 Fc of the pcDNA3.4-Fc (Human IgG1) expression vector) EVQLVESGGGLVQPGGSLRLSCAASGSISRFYAVGWYRQAPGKQRELVARISSGGSTYYADSVKGRFTISIDNSKNTLYLQMNSLRAEDTAVYYCNARNLWGQGTLVTVSS was 52800

Documented Geometric Mean : Alexa Fluor 647-H of humanized single domain antibody AHP15773-VHH4 (Fc fusion, Humanized VHH expressed from pcDNA3.4-Fc (Human IgG1); not shown: human IgG1 Fc of the pcDNA3.4-Fc (Human IgG1) expression vector) EVQLVESGGGLVQPGGSLRLSCAASGSDFSDSAMGWYRQAPGKQREFVAAIGAGGITTYADSVKGRFTISRDNAKNTLYLQMNSLRAEDTAVYFCNFAPGWYPPGYQYWGQGTLVTVSS : 48500

Data provenance: patent US20260158064A1
